- TARGET_ENTITY: LCK (Homo sapiens, UniProt P06239)
- Sequence (P06239 whole entry): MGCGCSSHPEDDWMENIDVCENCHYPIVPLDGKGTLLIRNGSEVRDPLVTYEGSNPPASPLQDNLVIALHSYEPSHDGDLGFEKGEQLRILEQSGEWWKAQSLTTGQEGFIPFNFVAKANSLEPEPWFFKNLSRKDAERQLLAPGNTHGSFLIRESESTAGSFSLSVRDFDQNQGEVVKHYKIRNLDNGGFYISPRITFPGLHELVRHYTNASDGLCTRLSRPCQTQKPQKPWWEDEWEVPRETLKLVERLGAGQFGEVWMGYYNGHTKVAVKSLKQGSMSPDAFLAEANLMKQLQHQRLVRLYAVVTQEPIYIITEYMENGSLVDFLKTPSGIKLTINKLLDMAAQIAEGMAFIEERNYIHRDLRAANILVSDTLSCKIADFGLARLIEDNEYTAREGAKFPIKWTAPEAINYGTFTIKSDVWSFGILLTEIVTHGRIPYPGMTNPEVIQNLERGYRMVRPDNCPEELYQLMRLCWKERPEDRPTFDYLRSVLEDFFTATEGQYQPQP
- ASSAY_COMMENT: Inhibition of a panel of kinases, in vitro HotSpot kinase assay: LCK
- Type: biochemical
- ASSAY_CONDITIONS: D-compounds panel data; 1 μM ATP; read-out: IC50 LCK
PROPERTY_LABEL: IC50

> print(dat)
                                entry.smiles  recorded.measurement
 1  CN1CCN(C(=O)c2ccc(Nc3nc(N[C@H]4CC[C@H](NC(=O)c5ccc(C6CC6)cc5F)CC4)cnc3C(N)=O)cc2)CC1        100 to 1000 nM
 2  C[C@@H]1[C@H](NC(=O)c2ccc(C3CC3)cc2F)CCCN1c1cnc(C(N)=O)c(Nc2ccc(N3CCN(C)C[C@@H]3C)cc2)n1          10 to 100 nM
 3  CC(C)n1ccc(C(=O)N[C@@H]2CCCN(c3cnc(C(N)=O)c(Nc4cnn(C)c4)n3)[C@@H]2C)cc1=O        100 to 1000 nM
 4  C[C@@H]1[C@H](NC(=O)N(C)C2CC2)CCCN1c1cnc(C(N)=O)c(Nc2cnn(C)c2)n1        100 to 1000 nM
 5  C[C@@H]1[C@H](NC(=O)c2ccc(C3CC3)cc2F)CCCN1c1cnc(C(N)=O)c(Nc2ccc(C3(C)CCN(C4CCCC4)CC3)cc2)n1               < 10 nM
 6  C[C@@H]1[C@H](NC(=O)c2ccc(OC3CC3)cc2)CCCN1c1cnc(C(N)=O)c(Nc2cnn(C)c2)n1          10 to 100 nM
 7  CC(C)N1CCN(c2ccc(Nc3nc(N4CCC[C@@H](NC(=O)c5ccc(C6CC6)cc5F)[C@H]4C)cnc3C(N)=O)cc2)CC1          10 to 100 nM
 8  C[C@@H]1[C@H](NC(=O)N(C)C)CCCN1c1cnc(C(N)=O)c(Nc2ccc(N3CCN(C)CC3)cc2)n1        100 to 1000 nM
 9  C[C@@H]1[C@H](NC(=O)c2ccc(C3CC3)cc2F)CCCN1c1cnc(C(N)=O)c(Nc2cnn(C)c2)n1      1000 to 10000 nM
10  C[C@@H]1[C@H](NC(=O)c2ccc(C3CC3)cn2)CCCN1c1cnc(C(N)=O)c(Nc2cnn(C)c2)n1        100 to 1000 nM
11  C[C@@H]1[C@H](NC(=O)c2ccc(C3CC3)cc2)CCCN1c1cnc(C(N)=O)c(Nc2cnn(C3CCN(C(=O)C4CC4)CC3)c2)n1        100 to 1000 nM
12  C[C@@H]1[C@H](NC(=O)c2ccc3ncsc3c2)CCCN1c1cnc(C(N)=O)c(Nc2cnn(C)c2)n1          10 to 100 nM
13  CN1CCN(Cc2ccc(Nc3nc(N4CCC[C@@H](n5ccc6cc(C7CC7)ccc6c5=O)C4)cnc3C(N)=O)cc2)CC1        100 to 1000 nM
